Entry source: patent US10793568B2

Kindly supply the reported Emax values for the records listed here.
# TESTED TARGET: human Farnesoid X receptor ligand-binding domain/Gal4 DNA binding domain chimera (Homo sapiens (Human))
# ASSAY NAME: Cell-based assay of FXR activation (FXR-UAS-bla HEK 293T beta-lactamase reporter)
# STUDY CONDITIONS: HEK-293T; extent of activation relative to GW4064; cellular FXR beta-lactamase reporter assay; read-out: % Efficacy
Write it as a number; the unit % goes unstated.

Look at this compound and give its reported Emax. Cc1cccc(Cl)c1-c1noc(C2CC2)c1CO[C@@H]1C[C@@H]2C[C@H]1CN2c1ccc(CCC(=O)NS(=O)(=O)C2CCOCC2)cc1F
98

Emax for O=C(O)c1cnc(N2C[C@@H]3C[C@H]2C[C@H]3OCc2c(-c3c(Cl)cccc3Cl)noc2C2CC2)c(F)c1 ?
101

// query Emax value for entry O=C(O)c1ccc2nc(N3C[C@@H]4C[C@H]3C[C@H]4OC(=O)c3c(-c4c(Cl)cccc4Cl)noc3C3CC3)sc2c1
120

Recorded Emax for CCOc1cc(C(=O)O)cc2sc(N3C[C@@H]4C[C@H]3C[C@H]4OCc3c(-c4c(Cl)cccc4Cl)noc3C3CC3)nc12 , please?
109

Given the entry O=C(O)c1cnc(N2C[C@@H]3C[C@H]2C[C@H]3OCc2c(-c3c(Cl)cccc3Cl)noc2C2(F)CC2)c(F)c1 , report its measured Emax.
99

Sample O=C(O)c1cc([C@@H]2CCOC2)c2nc(N3C[C@@H]4C[C@H]3C[C@H]4OCc3c(-c4c(F)cccc4Cl)noc3C3CC3)sc2c1 — what was its Emax?
105

====

Would you kindly list Emax for each of these compounds?
# TESTED TARGET: ligand binding domain of human FXR (Homo sapiens (Human))
# Sequence (Q96RI1 262-486): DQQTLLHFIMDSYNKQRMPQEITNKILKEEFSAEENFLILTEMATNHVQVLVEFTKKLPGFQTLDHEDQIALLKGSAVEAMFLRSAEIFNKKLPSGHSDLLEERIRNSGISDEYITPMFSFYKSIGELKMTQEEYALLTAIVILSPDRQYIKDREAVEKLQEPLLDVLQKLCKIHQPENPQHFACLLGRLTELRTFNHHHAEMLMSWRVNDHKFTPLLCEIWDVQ
# ASSAY NAME: FXR ligand binding assay (LanthaScreen TR-FRET, SRC2-2 peptide recruitment)
# STUDY CONDITIONS: extent of activation relative to GW4064; read-out: % Efficacy

Would you kindly share the measured Emax for CC(C)CCS(=O)(=O)NC(=O)c1ccc(N2C[C@@H]3C[C@H]2C[C@H]3OCc2c(-c3c(Cl)cccc3Cl)noc2C2CC2)c(F)c1 ?
163%

Form field: reported Emax of CS(=O)(=O)NC(=O)c1ccc(N2C[C@@H]3C[C@H]2C[C@H]3OC(=O)c2c(-c3c(Cl)cccc3Cl)noc2C2CC2)c(F)c1
199%

// returns reported Emax for input O=C(O)c1ncc(N2C(=O)[C@@H]3C[C@H]2C[C@H]3OCc2c(-c3c(Cl)cccc3Cl)noc2C2CC2)cc1F
132%

Which measured Emax value corresponds to O=C(O[C@@H]1C[C@@H]2C[C@H]1CN2c1ccc(-c2nn[nH]n2)cc1F)c1c(-c2c(Cl)cccc2Cl)noc1C1CC1 ?
269%

Dear colleague, I am looking for the recorded Emax of the following compound: CCCS(=O)(=O)NC(=O)c1cc(F)c2nc(N3C[C@@H]4C[C@H]3C[C@H]4OC(=O)c3c(-c4c(Cl)cccc4Cl)noc3C3CC3)sc2c1
148%

Look at this compound and give its reported Emax. O=C(O)c1ccc(N2C[C@@H]3C[C@H]2C[C@H]3OCc2c(-c3c(Cl)cccc3Cl)noc2C2CC2)cc1F
135%

Returns the measured Emax for the input compound. Input: CCc1cc(N2C(=O)[C@@H]3C[C@H]2C[C@H]3OCc2c(-c3c(Cl)cccc3Cl)noc2C2CC2)ccc1C(=O)O
127%

Need Emax of O=C(O)Cc1ccc(N2C[C@@H]3C[C@H]2C[C@H]3OCc2c(-c3c(Cl)cccc3Cl)noc2C2CC2)c(F)c1 , thanks.
130%

// Emax lookup, key: O=C(O)c1cc(F)c2nc(N3C[C@@H]4C[C@H]3C[C@H]4OCc3c(C4CCCCC4)noc3C3CC3)sc2c1
123%

If you can, please state the reported Emax value of O=C(O)c1ccc(N2C[C@@H]3C[C@H]2C[C@H]3OCc2c(-c3c(Cl)cccc3Cl)noc2C2(F)CC2)cc1 .
137%

Any idea what Emax was measured for CS(=O)(=O)CCNC(=O)c1ccc(N2C[C@@H]3C[C@H]2C[C@H]3OCc2c(-c3c(Cl)cccc3Cl)noc2C2CC2)cc1 ?
160%

Entry C[C@@H]1[C@@H]2C[C@@H](C[C@H]2OCc2c(-c3c(Cl)cccc3Cl)noc2C2CC2)N1c1ccc(C(=O)O)nc1 has what Emax?
61%

Which Emax value belongs to O=C(NS(=O)(=O)CC1CCOCC1)c1ccc(N2C(=O)[C@@H]3C[C@H]2C[C@H]3OCc2c(-c3c(Cl)cccc3Cl)noc2C2CC2)cc1 ?
198%

====

# TESTED TARGET: ligand binding domain of human FXR (Homo sapiens (Human))
# ASSAY NAME: FXR ligand binding assay (LanthaScreen TR-FRET, SRC2-2 peptide recruitment)
# STUDY CONDITIONS: read-out: % Efficacy
PARAMETER: Emax

Give the reported Emax for O=P(O)(O)Cc1ccc(N2C[C@@H]3C[C@H]2C[C@H]3OCc2c(-c3c(Cl)cccc3Cl)noc2C2CC2)cc1 (system: ligand binding domain of human FXR (Homo sapiens (Human))).
120%

ligand binding domain of human FXR (Homo sapiens (Human)) / Emax / O=C(O)c1cc(F)c2nc(N3C[C@H]4C[C@@H]3[C@H](OCc3c(-c5c(Cl)cccc5Cl)noc3C3CC3)C4)sc2c1 : value?
45%

Give ligand binding domain of human FXR (Homo sapiens (Human)) Emax for O=C1NCCc2cc(N3C[C@@H]4C[C@H]3C[C@H]4OCc3c(-c4c(Cl)cccc4Cl)noc3C3CC3)ccc21
154%

====

Answer each item with its documented EC50.
# TESTED TARGET: human Farnesoid X receptor ligand-binding domain/Gal4 DNA binding domain chimera (Homo sapiens (Human), UniProt Q96RI1)
# Sequence (Q96RI1 262-486, change not shown): as the sequence (Q96RI1 262-486) above
# Sequence (P04386 1-147 partner): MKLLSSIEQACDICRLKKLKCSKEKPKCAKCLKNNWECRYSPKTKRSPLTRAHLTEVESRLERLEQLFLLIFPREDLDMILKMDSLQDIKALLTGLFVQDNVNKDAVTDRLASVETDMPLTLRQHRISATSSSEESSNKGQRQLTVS
# ASSAY NAME: Cell-based assay of FXR activation (FXR-UAS-bla HEK 293T beta-lactamase reporter)
# STUDY CONDITIONS: cellular FXR beta-lactamase reporter assay, FXR-UAS-bla HEK 293T cells, 16 h; pEC50 = -log EC50
Please respond with the number in nM and leave the unit unwritten.

Looking for the measured EC50 of COC(=O)c1ccc(N2C[C@@H]3C[C@H]2C[C@H]3OCc2c(-c3c(Cl)cccc3Cl)noc2C2CC2)cc1F , can you help?
12.6

Fill in the blank: the reported EC50 of CCCS(=O)(=O)NC(=O)c1ccc(N2C[C@@H]3C[C@H]2C[C@H]3OCc2c(-c3c(Cl)cccc3Cl)noc2C2(F)CC2)c(F)c1 is ____.
0.501

====

Give Emax for every item shown.
# TESTED TARGET: human Farnesoid X receptor ligand-binding domain/Gal4 DNA binding domain chimera (Homo sapiens (Human))
# ASSAY NAME: Cell-based assay of FXR activation (FXR-UAS-bla HEK 293T beta-lactamase reporter)
# STUDY CONDITIONS: HEK-293T; extent of activation relative to GW4064; cellular FXR beta-lactamase reporter assay; read-out: % Efficacy
Write down the numeric answer in % and omit the unit.

GET /values?readout=Emax&item= Cc1cccc(C)c1-c1noc(C2CC2)c1CO[C@@H]1C[C@@H]2C[C@H]1C(=O)N2c1ccc(C(=O)O)cc1 [Compound I-308]
99

Recorded Emax for O=C(O)C1CCc2cc(N3C(=O)[C@@H]4C[C@H]3C[C@H]4OCc3c(-c4c(Cl)cccc4Cl)noc3C3CC3)ccc21 (stereo partly drawn) [Compound I-312] , please?
134

I would be grateful if you could share the reported Emax for C[C@@H]1[C@@H]2C[C@@H](C[C@H]2OCc2c(-c3c(Cl)cccc3Cl)noc2C2CC2)N1c1ccc(C(=O)O)cc1 [Compound I-360] .
102

Quick check: Emax of O=C(O)c1ccc(N2C[C@@H]3C[C@H]2C[C@H]3OCc2c(-c3c(Cl)cccc3Cl)noc2C2CC2)cc1F [Compound I-103] ?
103

I am curious: what Emax value has been reported for Cc1cc(C(=O)O)ccc1N1C(=O)[C@@H]2C[C@H]1C[C@H]2OCc1c(-c2c(Cl)cccc2Cl)noc1C1CC1 [Compound I-317] ?
126

# Emax lookup, item CC(CCS(=O)(=O)NC(=O)c1ccc(N2C[C@@H]3C[C@H]2C[C@H]3OCc2c(-c3c(Cl)cccc3Cl)noc2C2CC2)cc1)OC(=O)CCC(=O)O (stereo partly drawn) [Compound I-218]
101

Which Emax value belongs to CC(C)c1cccc(F)c1-c1noc(C2CC2)c1CO[C@@H]1C[C@@H]2C[C@H]1C(=O)N2c1ccc(C(=O)O)cc1 [Compound I-310] ?
115

Bench note: what Emax did Cc1cc(C(=O)O)cc2sc(N3C[C@@H]4C[C@H]3C[C@H]4OCc3c(-c4c(F)cccc4Cl)noc3C3CC3)nc12 [Compound I-262] show?
114

# Emax lookup, item O=P(O)(O)Cc1ccc(N2C[C@@H]3C[C@H]2C[C@H]3OCc2c(-c3c(Cl)cccc3Cl)noc2C2CC2)cc1 [Compound I-176]
92

Which Emax value is on record for O=C(O)c1cc(C2CCC2)c2nc(N3C(=O)[C@@H]4C[C@H]3C[C@H]4OCc3c(-c4c(Cl)cccc4Cl)noc3C3CC3)sc2c1 [Compound I-296] ?
109

Sample CCCS(=O)(=O)NC(=O)c1ccc(N2C[C@@H]3C[C@H]2C[C@H]3OC(=O)c2c(-c3c(Cl)cccc3Cl)noc2C2CC2)cc1 [Compound I-46] — what was its Emax?
110

// Emax lookup, key: O=C(O)c1ccc([N+]2([O-])C[C@@H]3C[C@H]2C[C@H]3OCc2c(-c3c(Cl)cccc3Cl)noc2C2CC2)cc1 (stereo partly drawn) [Compound I-127]
104

Could you share which Emax value was measured for Cc1cccc(Cl)c1-c1noc(C2CC2)c1CO[C@@H]1C[C@@H]2C[C@H]1CN2c1nc2c(O[C@@H]3CCOC3)cc(C(=O)O)cc2s1 [Compound I-275] ?
106

Requested field: Emax. Item: Cc1cccc(Cl)c1-c1noc(C2CC2)c1CO[C@@H]1C[C@@H]2C[C@H]1CN2c1ccc(C(=O)NS(=O)(=O)C2CCOCC2)cc1 [Compound I-203]
102

Report Emax for CC1(C)CC(S(=O)(=O)NC(=O)c2ccc(N3C(=O)[C@@H]4C[C@H]3C[C@H]4OCc3c(-c4c(Cl)cccc4Cl)noc3C3CC3)cc2)CCO1 (stereo partly drawn) [Compound I-329] please.
117
